assayed-target: mouse cathepsin L (mCTSL) (Mus musculus)
Sequence (P06797 114-334): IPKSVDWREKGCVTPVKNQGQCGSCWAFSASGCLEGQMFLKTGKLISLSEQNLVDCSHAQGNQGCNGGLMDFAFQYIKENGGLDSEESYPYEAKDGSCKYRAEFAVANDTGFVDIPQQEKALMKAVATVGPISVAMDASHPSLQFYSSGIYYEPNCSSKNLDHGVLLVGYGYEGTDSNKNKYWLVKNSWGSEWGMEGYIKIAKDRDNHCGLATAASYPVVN
assay-summary: mCTSL biochemical assay
stated-conditions: read-out: pIC50 (mouse CTSL) (converted)
Can you tell me log10(IC50) for the items I'm about to list?
Short version: log10 scale, IC50, nM.

Example results:
molecule	log10(IC50)
COc1cccc2[nH]c(C(=O)N[C@@H](Cc3cccc(F)c3)C(=O)N[C@@H](CCn3cn[nH]c3=O)C(=O)COc3c(F)c(F)c(C(C)(C)O)c(F)c3F)cc12	1.37
COc1cccc2[nH]c(C(=O)N[C@@H](Cc3cccc(F)c3)C(=O)N[C@@H](C[C@@H]3CCNC3=O)C(=O)COc3c(F)c(F)c(F)c(F)c3F)cc12 [compound 16, reference compound]	2.74
COc1cccc2[nH]c(C(=O)N[C@@H](Cc3cccc(F)c3)C(=O)N[C@@H](C[C@@H]3CCNC3=O)C(=O)COc3c(F)c(F)cc(F)c3F)cc12 [compound 15, reference compound]	2.78
COc1cccc2[nH]c(C(=O)N[C@@H](Cc3cccc(F)c3)C(=O)N[C@@H](C[C@@H]3CCNC3=O)C(=O)COc3c(F)c(F)c(C(C)O)c(F)c3F)cc12 (some centres unmarked)	2.46

Now consider a different molecule.
Given item "COc1cccc2[nH]c(C(=O)N[C@@H](Cc3cccc(F)c3)C(=O)N[C@@H](C[C@@H]3CC(=O)NC3=O)C(=O)COc3c(F)c(F)c(CO)c(F)c3F)cc12" , the value recorded as its log10(IC50) is 1.99

* * *

assayed-target: mouse cathepsin L (mCTSL) (Mus musculus)
assay-summary: mCTSL biochemical assay
pIC50: −log10 of the molar value.
readout-label: pIC50

Per the reported mouse cathepsin L (mCTSL) (Mus musculus) data, CC(C)(C)[C@H](NC(=O)C(F)(F)F)C(=O)N1C[C@H]2[C@@H]([C@H]1C(=O)N[C@H](C#N)C[C@@H]1CCNC1=O)C2(C)C [Nirmatrelvir, reference compound] has pIC50 of < 4.30

* * *

Can you tell me logD at 1 h for the items I'm about to list?
assay-summary: physchem
stated-conditions: pH 7.4

Example results:
molecule	logD at 1 h
COc1cccc2[nH]c(C(=O)N[C@@H](Cc3cccc(F)c3)C(=O)N[C@@H](CCn3cn[nH]c3=O)C(=O)COc3c(F)c(F)c(C(C)(C)O)c(F)c3F)cc12 [compound 13]	2.7
COc1cccc2[nH]c(C(=O)N[C@@H](Cc3cccc(F)c3)C(=O)N[C@@H](C[C@@H]3CC(=O)NC3=O)C(=O)COc3c(F)c(F)c(CO)c(F)c3F)cc12 [compound 6]	3.08
COc1cccc2[nH]c(C(=O)N[C@@H](Cc3cccc(F)c3)C(=O)N[C@@H](C[C@@H]3CC(=O)NC3=O)C(=O)COc3c(F)c(F)c(C(C)O)c(F)c3F)cc12 (stereo partly shown) [compound 9]	2.6

Hi there! I need logD at 1 h for each item below, if you can.
1. O=C(N[C@@H](Cc1c[nH]c2ccccc12)C(=O)N[C@@H](C[C@@H]1CCNC1=O)C(=O)COc1c(F)c(F)c(CO)c(F)c1F)c1cc2ccccc2[nH]1 [compound 5]
2. COc1cccc2[nH]c(C(=O)N[C@@H](Cc3cccc(F)c3)C(=O)N[C@@H](C[C@@H]3CCNC3=O)C(=O)COc3c(F)c(F)c(CO)c(F)c3F)cc12 [compound 1]
3. COc1cccc2[nH]c(C(=O)N[C@@H](Cc3cccc(F)c3)C(=O)N[C@@H](C[C@@H]3CCNC3=O)C(=O)COc3c(F)c(F)c(C(C)(C)O)c(F)c3F)cc12 [compound 10]
4. COc1cccc2[nH]c(C(=O)N[C@@H](Cc3cccc(F)c3)C(=O)N[C@@H](C[C@@H]3CCNC3=O)C(=O)COc3c(F)c(F)c(F)c(F)c3F)cc12 [compound 16, reference compound]

1.5
1.65
3.15
2.95
